Target entity: CDK1/CycE1 (Homo sapiens)
Sequence (P06493 whole entry): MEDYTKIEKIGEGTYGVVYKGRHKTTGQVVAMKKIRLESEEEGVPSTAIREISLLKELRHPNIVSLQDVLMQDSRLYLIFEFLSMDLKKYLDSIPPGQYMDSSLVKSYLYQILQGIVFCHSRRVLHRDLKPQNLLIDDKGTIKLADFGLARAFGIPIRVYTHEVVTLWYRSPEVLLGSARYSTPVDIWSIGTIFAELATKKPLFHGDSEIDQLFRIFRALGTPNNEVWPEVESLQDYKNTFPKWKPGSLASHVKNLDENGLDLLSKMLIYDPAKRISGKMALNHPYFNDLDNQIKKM
Sequence (P24864 whole entry partner): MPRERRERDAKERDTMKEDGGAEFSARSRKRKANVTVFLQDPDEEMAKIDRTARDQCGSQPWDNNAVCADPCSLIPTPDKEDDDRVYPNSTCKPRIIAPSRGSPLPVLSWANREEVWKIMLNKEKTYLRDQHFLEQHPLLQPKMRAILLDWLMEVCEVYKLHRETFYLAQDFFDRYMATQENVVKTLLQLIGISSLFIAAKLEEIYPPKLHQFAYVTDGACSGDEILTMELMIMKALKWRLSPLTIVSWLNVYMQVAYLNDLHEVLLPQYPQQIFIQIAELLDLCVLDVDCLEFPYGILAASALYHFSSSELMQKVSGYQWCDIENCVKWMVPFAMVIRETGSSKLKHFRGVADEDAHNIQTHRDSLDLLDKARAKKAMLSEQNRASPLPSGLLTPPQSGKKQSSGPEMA
Assay explanation: Kinase profiling
Type: biochemical
Endpoint: IC50
Give the value; after it, write the unit.

Task: // lookup IC50 | system=CDK1/CycE1 (Homo sapiens) | key= O=c1ccc2cnc(Nc3ccc(N4CCC(CCCO)CC4)cc3)nc2n1C1CC2CCC1C2 (stereo not shown) [PD-0183812, reference compound]
Result: 8.09 µM

###

Test system: MDA-MB-231 breast carcinoma cell line
Assay explanation: Proliferation assay: determination of GI50
Type: cell-based, human
Setup conditions: Homo sapiens, MDA-MB-231; Table 3; 48 h; n = 3 independent experiments; read-out: GI50 MDA-MB231
Give GI50 for every item shown.
Hi! Could you send only the number? It should be in nM, unit omitted.

Task: GI50 for CC(O)COC1CCN(c2ccc(Nc3ncc4ccc(=O)n([C@@H]5CC6CCC5C6)c4n3)cc2)CC1 (stereo partly shown) ?
Result: 1400

Task: # query: GI50 of entry CC(O)CCC1CCN(c2ccc(Nc3ncc4ccc(=O)n([C@@H]5CC6CCC5C6)c4n3)cc2)CC1 (stereo partly shown)
Result: 3600

Task: GI50 lookup needed for `CC(=O)c1c(C)c2cnc(Nc3ccc(N4CCC(CCCO)CC4)cc3)nc2n(C2CCCC2)c1=O` , thanks.
Result: 3000

Task: Can you look up the measured GI50 of O=c1ccc2cnc(Nc3ccc(N4CCNCC4)cc3)nc2n1[C@@H]1CC2CCC1C2 (stereo partly shown) for me?
Result: 150
